- runDescription: HUVEC growth inhibition – cell-based, human, primary screen (AID 575);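 further: 100% = median of untreated cell wells with 0.1% DMSO on each plate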
- condition: HUVEC proliferation, CellTiter-Glo luminescence, 72 h; at 10 µM; stronger effect = lower value
Calls of active or inactive are those of the source.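 How the source made its calls: active means viability at or below 30% in both replicate assays; inconclusive means viability at or below 30% in just one of the two assays; inactive means the rest.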
What viability was measured for each of the following?

Previously resolved entries follow.
>>> observedresult("CC(C)(C)Nc1nc(OCC(F)(F)F)nc(OCC(F)(F)F)n1")
"98.8% (inactive)"
>>> observedresult("COc1ccc(CN2CC(C(=O)NCc3ccccn3)CC2=O)cc1 (stereo not drawn)")
"101% (inactive)"
>>> observedresult("O=C(O)c1[nH]c2ccc(Cl)cc2c1CC(=O)N1CCN(C(=O)c2ccco2)CC1")
"108% (inactive)"
>>> observedresult("CC(=O)N(CCN(C(C)=O)c1ccccc1)c1ccccc1")
"88.8% (inactive)"
>>> observedresult("O=C(OCc1cc2ccccc2[nH]c1=O)c1ccncc1")
"76.4% (inactive)"
>>> observedresult("COc1ccc(-n2c(SCC(=O)Nc3ccc(C(=O)O)cc3)nnc2-c2cccs2)cc1")
"99.4% (inactive)"
>>> observedresult("Cc1ccc(NCc2nnc(SCC(=O)N3CCCCC3)n2CC2CCCO2)c(C)c1 (stereo not drawn)")
"106% (inactive)"
>>> observedresult("CCOC(=O)C1(C)NC(c2ccc(OC)c(OC)c2)C2C(=O)N(CC)C(=O)C21 (stereo not drawn)")
"89.2% (inactive)"
>>> observedresult("COc1cccc(NC(=O)N2CCN(c3cccc(C)c3C)CC2)c1")
"68.5% (inactive)"
>>> observedresult("CCCn1c(=O)c2ccccc2n2c(SCCOc3ccccc3F)nnc12")
"85.2% (inactive)"

For every record below, what is its viability?
1. C=CCOC(=O)C(C#N)c1nc2ccccc2nc1N1CCN(Cc2ccccc2)CC1 (stereo not drawn)
2. CC(=O)c1cccc(NC(=O)N2CCCc3ccccc32)c1
3. CC(=O)Nc1ccc(S(=O)(=O)NCC(C)NS(=O)(=O)c2ccc(NC(C)=O)cc2)cc1 (stereo not drawn)
4. FC(F)(F)c1cc(-c2ccco2)nc(N2CCOCC2)n1
5. COc1cccc2cc(C(=O)C3=C(O)C(=O)N(CCCN4CCOCC4)C3c3ccncc3)oc12 (stereo not drawn)
6. CCOc1ccc2cc(C#N)c(SCC(=O)N3CCCC3)nc2c1
7. Cc1nnc(SCC(=O)NCCN2C(=O)CSC2=O)s1

result:
1: 77.7% (inactive); 2: 95% (inactive); 3: 94.5% (inactive); 4: 69.1% (inactive); 5: 110% (inactive); 6: 85.3% (inactive); 7: 114% (inactive)

For every record below, what is its viability?
1. CCOc1ccc(NC(=O)CSc2nnc(Cc3cccn3C)n2-c2ccc(OC)cc2)cc1
2. Cc1ccc(C)c(OCC(O)CN2C(C)CCCC2C)c1 (stereo not drawn)
3. CCOC(=O)N1CCN(C(=O)c2csc3c2CCCCC3)CC1
4. Cc1cc(NC(=O)CSc2ccc(Cl)cc2)no1

result:
1: 79.5% (inactive); 2: 96.2% (inactive); 3: 94.9% (inactive); 4: 91.3% (inactive)

For every record below, what is its viability?
1. COc1ccc(C)cc1NC(=O)c1nnn(Cc2cccc(F)c2)c1N
2. COC(=O)C1=C(N)Oc2cc(C)[nH]c(=O)c2C1c1ccncc1 (stereo not drawn)
3. O=C(Cc1c(O)c2ccccc2[nH]c1=O)NCc1ccc(F)cc1

result:
1: 64.9% (inactive); 2: 94.4% (inactive); 3: 90.5% (inactive)

For every record below, what is its viability?
1. COC(=O)C1=C(C)OC(N)=C(C#N)C1c1ccccc1 (stereo not drawn)
2. CC(=O)c1cc2c(=O)c3cc(C)ccc3oc2nc1C
3. O=C(c1ccc(-c2cccc(C(F)(F)F)c2)o1)N1CCOCC1
4. Cc1ccc2c(c1)NC(=O)C(CC(=O)NC1CCCCC1C)O2 (stereo not drawn)
5. CCC(=O)c1ccc(OCC(O)CN2CCN(S(=O)(=O)N3CCCCC3)CC2)cc1 (stereo not drawn)
6. N#C/C(C(=O)N1CCOCC1)=C1/SC(Cc2ccccc2)C(=O)N1c1ccccc1 (stereo not drawn)
7. Cc1cc(C)cc(NC(=O)N2CCC(c3nc4ccccc4o3)CC2)c1
8. Cc1cc(C)c(NC(=O)C2CSCCS2)c(C)c1 (stereo not drawn)

result:
1: 102% (inactive); 2: 68.4% (inactive); 3: 72.8% (inactive); 4: 103% (inactive); 5: 105% (inactive); 6: 99.4% (inactive); 7: 88.9% (inactive); 8: 99.7% (inactive)

query: Return viability for the following compound: CCCN1CCC(NC(=O)Nc2ccc(OC)c(OC)c2)CC1
result: 111% (inactive)

###

What viability was measured for each of the following?
- runDescription: reversal of MRP1-mediated doxorubicin resistance, pilot screen, H69AR cells, doxorubicin co-treatment (AID 601)
- condition: H69AR cells + 2 uM doxorubicin, CellTiter-Glo, 72 h; measured here: viability with 2 uM doxorubicin; at 10 µM; stronger effect = lower value

>>> observedresult("Cc1nc(NCCNC(=O)c2ccco2)c2c(C)c(C)sc2n1")
"84.3%"

For every record below, what is its viability?
1. CCN(C#N)c1nc(NC(C)C)nc(NC(C)C)n1
2. O=C(NCc1cccnc1)c1ccc(=O)oc1
3. CCCOc1ccc([C@@H]2C3CN(C(=O)OCC)CC=C3C(C#N)=C(N)C2(C#N)C#N)cc1OC (stereo partly specified)
4. CCCn1c(SCC(=O)N2CCN(c3ccccc3)CC2)nc2ccccc2c1=O
5. CCOC(=O)CSC1=Nc2ccccc2C2=NC(CC(=O)NCc3ccc(OC)cc3)C(=O)N12 (stereo unspecified)

result:
1. 88.8%
2. 88.3%
3. 75.2%
4. 83.8%
5. 97.3%

###

- runDescription: 384-well plate pilot, post-Golgi transport modulator project, inhibition of yeast transport mutant growth (AID 636)
- condition: absorbance 615 nm, about 18 h, stronger effect = higher value
Calls of active or inactive are those of the source. No stated cut-off is given here; in the data, active means inhibition above about 31%; inactive means the rest.
endpointLabel: inhibition

Previously resolved entries follow.
>>> observedresult("CC1(C)Cc2c(c(-c3ccccc3)nc(N3CCCC3)c2C(N)=O)CO1")
"-1.95% (inactive)"
>>> observedresult("COc1cc(OC)nc(NC(=O)CSc2nc3ccccc3o2)n1")
"-6.4% (inactive)"
>>> observedresult("COc1ccccc1C1c2c(oc3ccc(Cl)cc3c2=O)C(=O)N1c1cc(C)on1 (centres undefined)")
"-2.93% (inactive)"

For every record below, what is its inhibition?
1. CCOc1ncccc1C(=O)OCC(=O)N1CC(=O)Nc2ccccc21
2. CCOc1ccc2[nH]c(=O)c(CN(Cc3ccccc3)C(=O)N3CCCC3)cc2c1
3. CCCn1c(=N)n(CC(=O)c2cccs2)c2ccccc21
4. COc1cccc(N2CCN(C(=O)C3C4C=CC5(CN(Cc6ccccc6Cl)C(=O)C35)O4)CC2)c1 (centres undefined)

result:
1. -0.78% (inactive)
2. -2.5% (inactive)
3. -7.33% (inactive)
4. -3.42% (inactive)

###

- runDescription: reversal of MRP1-mediated doxorubicin resistance, pilot screen, H69AR cells, doxorubicin co-treatment (AID 601)
- condition: H69AR cells + 2 uM doxorubicin, CellTiter-Glo, 72 h; at 10 µM; stronger effect = higher value
What differential viability (reversal) was measured for each of the following?
Answers are plain numbers, in %.

Previously resolved entries follow.
>>> observedresult("COCCCNS(=O)(=O)c1ccc2c(c1)CCN2C(C)=O")
-17.4
>>> observedresult("CCCCOC(=O)CN1C(=O)c2ccc(C(=O)OCCCC)cc2C1=O")
10.4
>>> observedresult("Cc1c(NC(=O)CSc2nnc3sc4ccccc4n23)c(=O)n(-c2ccccc2)n1C")
0.76

For every record below, what is its differential viability (reversal)?
1. Cc1onc(-c2c(Cl)cccc2Cl)c1C(=O)N1CCc2ccccc21
2. O=C(O)CN1C(=O)CNC1=O
3. CCOc1ccc(N2CC(C(=O)Nc3cccc(C)c3C)CC2=O)cc1 (centres undefined)

result:
1. -24.3
2. 2.41
3. 12.1

###

- runDescription: reversal of MRP1-mediated doxorubicin resistance, pilot screen, H69AR cells, doxorubicin co-treatment (AID 601)
- condition: H69AR cells, CellTiter-Glo, 72 h; compound alone cytotoxicity; at 10 µM
endpointLabel: viability (%)
Give bare numbers, in %.

Previously resolved entries follow.
>>> observedresult("Cc1cc(C)n(CCCNC(=O)c2ccc3c(c2)NC(=O)CS3)n1")
89.7
>>> observedresult("COCCNS(=O)(=O)c1cc(F)ccc1OC")
103
>>> observedresult("CCOc1cc(C(=O)N2CCN(c3ccccc3)CC2)cc(OCC)c1OCC")
97.2
>>> observedresult("Cc1cc(C)n(CC2CC(=O)N(c3ccc(Cl)c(Cl)c3)C2=O)n1 (stereo not drawn)")
104
>>> observedresult("O=S1(=O)CCC(NS(=O)(=O)/C=C/c2ccccc2)C1 (stereo not drawn)")
99.2
>>> observedresult("Cc1nc2ccccc2cc1C(=O)NCc1ccco1")
93.3
>>> observedresult("Cc1nn(Cc2ccc(C(=O)NC3CCCCC3)o2)c(C)c1Br")
92.9
>>> observedresult("Nc1nnn(Cc2ccccc2)n1")
119
>>> observedresult("Cc1cc(C)nc(N2CCCC(C(=O)Nc3ccc4c(c3)OCO4)C2)n1 (stereo not drawn)")
98.5
>>> observedresult("COC(=O)c1cc(OC)c(OC)cc1NC(=O)CCC1CCCC1")
102

For every record below, what is its viability?
1. C/C(N)=C(\C#N)C(=O)NCCc1ccccn1
2. C=CCn1c(SCC(=O)NCCCC)nc2scc(-c3ccco3)c2c1=O

result:
[114, 88.8]

For every record below, what is its viability?
1. CCOc1ccc(N2CC(C(=O)Nc3cccc(C)c3C)CC2=O)cc1 (stereo not drawn)
2. CCn1c(SCC(=O)Nc2nccs2)nnc1-c1ccncc1
3. C=CCNC(=O)c1cccc(Br)c1
4. CN(c1ccccc1C(N)=O)S(=O)(=O)c1ccccc1
5. O=C(CSc1nnnn1C1CCCC1)Nc1cccc(NC(=O)c2ccco2)c1
6. Cc1ccc(S(=O)(=O)NC(=O)c2cc(C)n(CCCn3ccnc3)c2C)cc1
7. COc1ccc(S(=O)(=O)N2CCN(CC(=O)Nc3ccc(F)c(F)c3)CC2)cc1
8. Cc1ccc(NC(=O)c2ccccc2O)cc1

result:
1: 108; 2: 84.8; 3: 92; 4: 92.7; 5: 110; 6: 90.7; 7: 91.1; 8: 89.2

For every record below, what is its viability?
1. CCc1ccc2nc(NC(=O)CSCc3c(C)noc3C)sc2c1
2. CCc1cccc2c(=O)c(C(=O)NCCN3CCOCC3)c[nH]c12
3. c1ccc(-c2cc3c(nn2)CCc2nonc2-3)cc1
4. O=C(CNS(=O)(=O)c1ccc(Br)s1)N1CCCC1
5. O=S(=O)(Cc1ccccc1)N1CCCCCC1

result:
[87.2, 108, 97.8, 99.9, 101]

For every record below, what is its viability?
1. O=C(CSc1nnc(CNC(=O)c2cccs2)o1)NC1CCCC1
2. CCN1CCN(S(=O)(=O)Cc2ccccc2)CC1
3. CCn1nc(CC(=O)Nc2nnc(CC(=O)N3CCCCC3)s2)c2ccccc2c1=O
4. O=C1CC(N2CCN(C3CCc4ccccc4C3)CC2)C(=O)N1c1ccccc1 (stereo not drawn)
5. CCN(CC)c1ccc2cc(NC(=O)CCC(=O)O)c(=O)oc2c1
6. CCc1cccc2c(=O)c(C(=O)N3CCCCCC3)c[nH]c12
7. COc1cc(C(=O)Nc2ccc(-n3cnnn3)c(C)c2)cc(OC)c1OC
8. Cc1ccc2[nH]c3c(N4CCOCC4)ncnc3c2c1

result:
1: 82.4; 2: 91.4; 3: 97.5; 4: 91.6; 5: 95.7; 6: 97.5; 7: 74; 8: 85.5

For every record below, what is its viability?
1. Cc1ccc(NC2=NC(c3ccccc3)n3c(nc(C)cc3=O)N2)cc1 (stereo not drawn)
2. O=C(O)c1cc2c([nH]c1=O)CCCC2
3. C=CCc1cc(OC)ccc1OCC(O)CN1CCN(c2ccc(OC)cc2)CC1 (stereo not drawn)
4. CC1CCN(C(=O)Cn2c(=O)oc3ccccc32)CC1

result:
[88.5, 88.8, 99.6, 90.7]

For every record below, what is its viability?
1. CCn1cc(C(=O)NCCCOC)c(=O)c2cc(S(=O)(=O)N(C)C3CCCCC3)ccc21
2. COc1ccccc1Oc1coc2c(CN3CCN(C)CC3)c(O)ccc2c1=O
3. Cc1ccc(S(=O)(=O)NCCN2CCOCC2)cc1C
4. CCCN(CCC)CCNC(=O)C(NS(=O)(=O)c1ccc2c(c1)CCC(=O)N2)c1ccccc1 (stereo not drawn)
5. CC1CCCC(C(=O)OCc2ccccc2)N1 (stereo not drawn)
6. c1cncc(-c2nnc(-c3ccco3)o2)c1

result:
[90.8, 99.5, 86.1, 89.4, 97.2, 105]
